FYI, the data here is from the supplement of paper PMC10307832.

test system: NCI-H358; experiment: relative viability (nuclei count vs DMSO), 5 days (fraction); higher = more cells survive; conditions: first compound 0.01 µM
The label MET is reserved for relative viability strictly under 0.7; NOT MET covers values equal to or above it.

# example entries with known answers
compound	system	assigned.class
CCN(CC)CCCCNc1ncc2cc(-c3cc(OC)cc(OC)c3)c(NC(=O)NC(C)(C)C)nc2n1 + NC(=O)Nc1cc(-c2cccc(F)c2)sc1C(=O)N[C@H]1CCCNC1 [AZD7762] (partner 0.2 µM)	NCI-H358	MET
O=c1cc(N2CCOCC2)oc2c(-c3cccc4c3sc3ccccc34)cccc12 + Cc1nc(NC(=O)N2CCC[C@H]2C(N)=O)sc1-c1ccnc(C(C)(C)C(F)(F)F)c1 [Alpelisib] (partner 2 µM)	NCI-H358	NOT MET
O=c1cc(N2CCOCC2)oc2c(-c3cccc4c3sc3ccccc34)cccc12 + CCNC(=O)c1noc(-c2cc(C(C)C)c(O)cc2O)c1-c1ccc(CN2CCOCC2)cc1 [Luminespib] (partner 0.01 µM)	NCI-H358	MET
O=c1cc(N2CCOCC2)oc2c(-c3cccc4c3sc3ccccc34)cccc12 + O=C(CCCCCCC(=O)Nc1ccccc1)NO [Vorinostat] (partner 1 µM)	NCI-H358	MET
CCN(CC)CCCCNc1ncc2cc(-c3cc(OC)cc(OC)c3)c(NC(=O)NC(C)(C)C)nc2n1 + CS(=O)(=O)N1CCN(Cc2cc3nc(-c4cccc5[nH]ncc45)nc(N4CCOCC4)c3s2)CC1 [Pictilisib] (partner 1 µM)	NCI-H358	MET
CCN(CC)CCCCNc1ncc2cc(-c3cc(OC)cc(OC)c3)c(NC(=O)NC(C)(C)C)nc2n1 + Cc1nc(NC(=O)N2CCC[C@H]2C(N)=O)sc1-c1ccnc(C(C)(C)C(F)(F)F)c1 [Alpelisib] (partner 2 µM)	NCI-H358	NOT MET

Shift focus to the following entry.
## Input Hello, is relative viability of the following compound strictly smaller than 0.7? O=c1cc(N2CCOCC2)oc2c(-c3cccc4c3sc3ccccc34)cccc12 + C[C@]1(O)C[C@@H](c2nc(-c3ccc4ccc(-c5ccccc5)nc4c3)c3c(N)nccn32)C1 [Linsitinib] (partner 1 µM)
## Output MET
